# assay method text: binders of probe aFGF2 on microarray, primary screen, stem cell growth factor project, biochemical, small-molecule microarray, fluorescence 635/667 (AID 1067);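 further: measures binding of biotinylated aFGF2 protein to printed compounds on slides; z-score merges feature fluorescence and signal-to-noise across triplicate slides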
# measurement parameters: higher = more signal
Assignment: determine reported composite z-score for the given molecules.
When you answer, write just the number.

Asked: Name the recorded composite z-score for `CC(=O)NCCCC[C@@H]1NC(=O)[C@H]2C[C@@H](C(=O)NCCCCCCN(C)C)[C@@H](c3cccc(OCCO)c3)N2C1=O` .
Given back: 0.0996

Asked: Would you kindly repeat that for CC(c1ccccc1)C(O)C1C=CC2C(=O)N(C)C(=O)C2N1N(c1ccccc1)c1ccccc1 (stereo unspecified) ?
Given back: 0.0395

Asked: Would you kindly repeat that for Cc1ccccc1C(O)C1C=CC2C(=O)N(c3ccccc3)C(=O)C2N1Nc1ccc(C#N)cc1 (stereo unspecified) ?
Given back: 0.429

Asked: Would you kindly repeat that for `C[C@]1(C(=O)NCCN2CCOCC2)c2ccccc2C(=O)N(Cc2ccccc2)[C@H]1c1ccc(CO)cc1` ?
Given back: 0.0008

Asked: Would you kindly repeat that for `CC(C)CN1C(=O)[C@@]2(Cc3ccccc31)c1ccccc1C(=O)N(C1CCCCC1)[C@H]2c1ccc(CO)cc1` ?
Given back: -0.172

Asked: Would you kindly repeat that for CN1C(=O)C2C=CC(C(O)c3ccc(N(C)C)cc3)N(Nc3ccc([N+](=O)[O-])cc3[N+](=O)[O-])C2C1=O (stereo unspecified) ?
Given back: 0.126

---

# Test system: XIP peptide (Xip251-270)
# assay method text: small-molecule binders of XIP peptide, primary screen, biochemical, small-molecule microarray, fluorescence 635/667 nm, 0.5 µg/mL protein (AID 1183)
# measurement parameters: small-molecule microarray binding, fluorescence 635 nm; higher = more signal
Kind request: treat 0.7 as inclusive, so composite z-score at 0.7 or higher is True, anything lower is False.

Asked: Given the entry `CC(C)CNC(=O)[C@@]1(C)c2ccccc2C(=O)N(Cc2ccc(OC(F)(F)F)cc2)[C@H]1c1ccc(CO)cc1` , answer whether its composite z-score meets or surpasses 0.7.
Given back: False

Asked: Would you kindly repeat that for `CCCNC(=O)[C@@H]1c2ccccc2C(=O)N(Cc2cc(F)cc(C(F)(F)F)c2)[C@H]1c1ccc(CO)cc1` ?
Given back: True

Asked: Would you kindly repeat that for `CC[C@@H]1C=C(C(=O)O)[C@H](c2ccccc2)N1S(=O)(=O)c1ccc([N+](=O)[O-])cc1` ?
Given back: True

Asked: Would you kindly repeat that for `COC(=O)[C@@]1(Cc2ccccc2CN=[N+]=[N-])N=C(c2ccc(OCCCO)cc2)O[C@H]1c1ccccc1N=[N+]=[N-]` ?
Given back: False

Asked: Would you kindly repeat that for `COc1ccc([Si](C)(C)[C@@H]2[C@@H](CCO)O[C@]3(C(=O)N(Cc4ccccc4)c4ccccc43)[C@H]2C)cc1` ?
Given back: False

Asked: Would you kindly repeat that for `CC(C)(C)OC(=O)CC[C@@]1(C(=O)NCc2ccccc2)N=C(c2ccc(OCCCO)cc2)O[C@@H]1c1ccccc1` ?
Given back: True

Asked: Would you kindly repeat that for `CC(=O)NCCCC[C@@H]1NC(=O)[C@@H]2C[C@H](C(=O)NCCCCCNC(=O)CS)[C@H](c3ccc(O)cc3)N2C1=O` ?
Given back: False

Asked: Would you kindly repeat that for `NC(=O)NCC#Cc1ccc2c(c1)[C@]1(C(=O)N2)[C@H](C(N)=O)[C@H]2C(=O)O[C@H](c3ccccc3)[C@H](c3ccccc3)N2[C@@H]1c1ccccc1OCCO` ?
Given back: False
